Please provide measured DC50 for the entries that follow.
# targetOrTestSystem: IRAK4 (Homo sapiens, UniProt Q9NWZ3)
# Construct: endogenous in cells; host or cells: OCI-LY10
# Sequence (Q9NWZ3 whole entry): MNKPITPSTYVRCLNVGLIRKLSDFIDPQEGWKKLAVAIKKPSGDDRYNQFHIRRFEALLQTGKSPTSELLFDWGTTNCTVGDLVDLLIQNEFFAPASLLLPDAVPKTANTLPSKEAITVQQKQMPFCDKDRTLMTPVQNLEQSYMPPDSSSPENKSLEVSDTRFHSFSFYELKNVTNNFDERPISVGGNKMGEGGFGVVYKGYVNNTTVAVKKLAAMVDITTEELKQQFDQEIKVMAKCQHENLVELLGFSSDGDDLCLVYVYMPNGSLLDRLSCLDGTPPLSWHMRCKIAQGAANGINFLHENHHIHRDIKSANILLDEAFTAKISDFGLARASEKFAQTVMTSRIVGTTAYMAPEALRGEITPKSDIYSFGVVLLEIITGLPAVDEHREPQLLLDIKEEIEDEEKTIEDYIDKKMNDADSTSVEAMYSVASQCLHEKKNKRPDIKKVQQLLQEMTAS
# methodDescription: IRAK4 MSD Degradation in OCI-LY10
# Assay type: cell-based
# runConditions: OCI-LY10 cells, 24 hrs incubation, read-out: IRAK4 degradation in OCI-LY10 at 24 hrs: DC50
# Protocol: Degradation of IRAK4 in OCI-LY10 was quantitatively measured using Meso Scale Discovery technology. […] Compounds were then added to the assay plates with a final top concentration of 1 to 10 μM in a 1:3 dilution series with total of 8 doses. […] The assay plates were then incubated at room temperature for 1 hour, washed 3 times with 150 μL/well TBST buffer, and 150 μL/well MSD reading buffer (Meso Scale Discovery catalog number R92TC-2) was added. […]

Which DC50 is listed for CN(C[C@H]1CC[C@H](n2cc3cc(NC(=O)c4cccc(C(F)(F)F)n4)c(C(C)(C)O)cc3n2)CC1)[C@H]1CC[C@@]2(CC1)C[C@H](Nc1cccc3c1C(=O)N(C1CCC(=O)NC1=O)C3=O)C2 (stereo partly drawn) ?
50 to 100 nM

Which DC50 is listed for COc1cc2nn([C@H]3CC[C@H](CN4CCC5(CC4)CC(CCNc4cccc6c4C(=O)N(C4CCC(=O)NC4=O)C6=O)C5)CC3)cc2cc1NC(=O)c1cccc(C(C)(C)F)n1 (stereo partly drawn) ?
50 to 100 nM

Which DC50 is listed for CC(C)(O)c1cc2nn([C@H]3CC[C@H](CN4CCC5(CC4)CC(Nc4cccc6c4C(=O)N(C4CCC(=O)NC4=O)C6=O)C5)CC3)cc2cc1NC(=O)c1cccc(S(F)(F)(F)(F)F)n1 (stereo partly drawn) ?
< 50 nM

Which DC50 is listed for O=C1CCC(N2C(=O)c3cccc(NCCC4CC5(CCN(C[C@H]6CC[C@H](c7nc8cc(N9CCC(CO)CC9)c(NC(=O)c9cccc(C(F)(F)F)n9)cc8o7)CC6)CC5)C4)c3C2=O)C(=O)N1 (stereo partly drawn) ?
100 to 500 nM

Which DC50 is listed for COc1cc2c(cc1NC(=O)c1cccc(C(F)(F)F)n1)CN([C@H]1CC[C@H](CN3CC4(CC(CCNc5cccc6c5C(=O)N(C5CCC(=O)NC5=O)C6=O)C4)C3)CC1)C2=O (stereo partly drawn) ?
50 to 100 nM

Which DC50 is listed for COc1cc2nn([C@H]3CC[C@H](CN(C)[C@H]4CC[C@H](Nc5cccc6c5C(=O)N(C5CCC(=O)NC5=O)C6=O)CC4)CC3)cc2cc1NC(=O)c1cccc(C)n1 (stereo partly drawn) ?
< 50 nM

Which DC50 is listed for COc1cc2nn([C@H]3CC[C@H](CN4CCC5(CC4)CC(CCNc4cccc6c4C(=O)N(C4CCC(=O)NC4=O)C6=O)C5)CC3)cc2cc1NC(=O)c1cccc(C(C)(F)F)n1 (single isomer, unassigned) [I-128] ?
50 to 100 nM

Which DC50 is listed for CN(C[C@H]1CC[C@H](n2cc3cc(NC(=O)c4cccc(C(F)(F)F)n4)c(C(C)(C)O)cc3n2)CC1)[C@H]1CC[C@]2(CC1)C[C@H](Nc1cccc3c1C(=O)N(C1CCC(=O)NC1=O)C3=O)C2 (stereo partly drawn) ?
< 50 nM

Which DC50 is listed for CCOc1cc2nn([C@H]3CC[C@H](CN4CCC5(CC4)CC(CCNc4cccc6c4C(=O)N(C4CCC(=O)NC4=O)C6=O)C5)CC3)cc2cc1NC(=O)c1cccc(C(F)(F)F)n1 (stereo partly drawn) ?
100 to 500 nM
